Sourced from BindingDB's records for PubMed 11356907

- tested system: Amine oxidase [flavin-containing] A (Rattus norvegicus)
- Sequence (P21396 whole entry): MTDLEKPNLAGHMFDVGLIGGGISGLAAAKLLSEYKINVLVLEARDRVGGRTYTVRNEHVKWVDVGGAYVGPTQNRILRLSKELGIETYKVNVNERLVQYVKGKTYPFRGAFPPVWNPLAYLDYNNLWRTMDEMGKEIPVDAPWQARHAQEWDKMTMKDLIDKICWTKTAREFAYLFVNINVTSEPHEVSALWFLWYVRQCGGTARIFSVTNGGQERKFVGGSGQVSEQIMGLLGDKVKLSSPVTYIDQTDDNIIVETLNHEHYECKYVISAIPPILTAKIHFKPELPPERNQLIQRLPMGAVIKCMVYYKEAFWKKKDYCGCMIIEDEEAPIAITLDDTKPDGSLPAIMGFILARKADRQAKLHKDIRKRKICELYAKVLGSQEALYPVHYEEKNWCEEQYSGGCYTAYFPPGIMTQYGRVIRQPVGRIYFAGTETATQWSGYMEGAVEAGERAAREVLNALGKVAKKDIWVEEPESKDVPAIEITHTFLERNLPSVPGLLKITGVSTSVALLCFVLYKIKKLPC
pKi: −log10 of the molar value.

test smiles	tested system	pKi
c1cnc(N2CCN(Cc3ccc4c(c3)OCO4)CC2)nc1	Amine oxidase [flavin-containing] A (Rattus norvegicus)	< 5.00

====

- tested system: Norepinephrine transporter (Rattus norvegicus)
measured property: Ki

compound	result
c1cnc(N2CCN(Cc3ccc4c(c3)OCO4)CC2)nc1 [NSC_4850]	> 10 µM

====

- tested system: UniProt P14416
- Sequence (P14416 whole entry): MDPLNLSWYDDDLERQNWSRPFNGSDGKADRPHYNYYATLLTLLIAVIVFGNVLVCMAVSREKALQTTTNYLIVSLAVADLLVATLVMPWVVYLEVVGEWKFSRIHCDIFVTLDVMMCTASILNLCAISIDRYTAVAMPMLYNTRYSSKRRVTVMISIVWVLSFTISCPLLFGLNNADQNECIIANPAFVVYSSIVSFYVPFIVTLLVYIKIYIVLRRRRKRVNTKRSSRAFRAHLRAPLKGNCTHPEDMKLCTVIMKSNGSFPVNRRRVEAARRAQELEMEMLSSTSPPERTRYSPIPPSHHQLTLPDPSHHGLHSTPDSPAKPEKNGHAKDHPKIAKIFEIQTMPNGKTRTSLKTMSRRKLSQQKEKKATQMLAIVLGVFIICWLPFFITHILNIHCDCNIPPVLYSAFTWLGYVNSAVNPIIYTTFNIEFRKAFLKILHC
pKi: −log10 of the molar value.

test smiles	pKi
c1cnc(N2CCN(Cc3ccc4c(c3)OCO4)CC2)nc1	6.88

====

- tested system: D(2) dopamine receptor (Rattus norvegicus, UniProt P61169)
- Sequence (P61169 whole entry): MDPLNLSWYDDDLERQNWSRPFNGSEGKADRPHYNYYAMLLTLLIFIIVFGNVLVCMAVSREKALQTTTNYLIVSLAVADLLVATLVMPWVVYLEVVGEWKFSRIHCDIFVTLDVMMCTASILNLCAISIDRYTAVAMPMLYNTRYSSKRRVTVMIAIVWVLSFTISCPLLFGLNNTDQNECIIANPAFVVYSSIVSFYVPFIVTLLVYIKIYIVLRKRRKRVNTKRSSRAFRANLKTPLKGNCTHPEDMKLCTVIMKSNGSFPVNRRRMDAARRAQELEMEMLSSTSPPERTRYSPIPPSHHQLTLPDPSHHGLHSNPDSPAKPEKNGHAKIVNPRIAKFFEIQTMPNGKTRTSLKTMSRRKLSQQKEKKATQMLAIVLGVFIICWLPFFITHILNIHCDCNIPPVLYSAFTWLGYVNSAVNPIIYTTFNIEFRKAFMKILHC
pKi: −log10 of the molar value.
measured property: pKi

molecule	measured property	measured number
c1cnc(N2CCN(Cc3ccc4c(c3)OCO4)CC2)nc1 [NSC_4850]	pKi	6.74

====

- tested system: UniProt:P35368
- Sequence (P35368 whole entry): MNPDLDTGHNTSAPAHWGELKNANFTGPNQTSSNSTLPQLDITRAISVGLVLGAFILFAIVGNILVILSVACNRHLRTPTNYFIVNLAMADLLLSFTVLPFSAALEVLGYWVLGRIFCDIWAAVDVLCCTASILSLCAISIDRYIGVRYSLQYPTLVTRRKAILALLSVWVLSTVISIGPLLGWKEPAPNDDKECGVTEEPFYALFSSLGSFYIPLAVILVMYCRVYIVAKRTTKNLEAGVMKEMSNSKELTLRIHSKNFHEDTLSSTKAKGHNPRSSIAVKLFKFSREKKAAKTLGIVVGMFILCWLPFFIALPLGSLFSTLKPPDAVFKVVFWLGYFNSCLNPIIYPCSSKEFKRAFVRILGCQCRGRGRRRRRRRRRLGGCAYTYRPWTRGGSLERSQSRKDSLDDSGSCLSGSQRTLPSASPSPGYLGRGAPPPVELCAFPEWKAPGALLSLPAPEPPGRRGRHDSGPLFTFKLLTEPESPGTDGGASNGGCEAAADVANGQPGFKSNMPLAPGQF

test smiles	unit text	Ki
c1cnc(N2CCN(Cc3ccc4c(c3)OCO4)CC2)nc1	µM	6.17

====

- tested system: Beta-2 adrenergic receptor (Homo sapiens, UniProt P07550)
- Sequence (P07550 whole entry): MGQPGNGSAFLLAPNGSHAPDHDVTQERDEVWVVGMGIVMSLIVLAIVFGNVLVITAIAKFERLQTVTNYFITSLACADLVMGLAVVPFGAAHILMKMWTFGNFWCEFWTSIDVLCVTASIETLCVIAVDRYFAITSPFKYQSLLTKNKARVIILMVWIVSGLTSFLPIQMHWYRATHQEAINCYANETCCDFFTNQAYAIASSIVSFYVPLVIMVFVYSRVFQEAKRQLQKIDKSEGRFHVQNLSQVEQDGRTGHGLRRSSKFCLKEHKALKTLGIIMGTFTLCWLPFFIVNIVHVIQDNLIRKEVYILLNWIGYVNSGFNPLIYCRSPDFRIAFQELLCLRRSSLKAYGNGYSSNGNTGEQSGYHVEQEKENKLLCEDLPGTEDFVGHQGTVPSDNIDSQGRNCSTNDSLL
pKi: −log10 of the molar value.

test smiles	pKi
c1cnc(N2CCN(Cc3ccc4c(c3)OCO4)CC2)nc1	< 5.00

====

Target sequence: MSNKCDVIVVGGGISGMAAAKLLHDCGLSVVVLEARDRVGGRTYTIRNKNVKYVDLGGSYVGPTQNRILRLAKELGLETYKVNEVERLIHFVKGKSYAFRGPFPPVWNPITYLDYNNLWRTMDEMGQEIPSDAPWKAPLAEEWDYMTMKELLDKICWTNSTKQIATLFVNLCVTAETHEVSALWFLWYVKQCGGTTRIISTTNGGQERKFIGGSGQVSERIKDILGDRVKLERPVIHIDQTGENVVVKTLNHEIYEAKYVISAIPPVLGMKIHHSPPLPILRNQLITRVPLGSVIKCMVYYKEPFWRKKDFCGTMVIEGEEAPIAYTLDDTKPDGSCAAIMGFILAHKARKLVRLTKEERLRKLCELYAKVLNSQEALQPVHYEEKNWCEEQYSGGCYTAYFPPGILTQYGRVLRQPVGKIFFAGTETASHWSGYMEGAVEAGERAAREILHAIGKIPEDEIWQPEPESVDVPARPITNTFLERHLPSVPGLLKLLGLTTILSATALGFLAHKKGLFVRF
pKi: −log10 of the molar value.
measured property: pKi

test smiles	result
c1cnc(N2CCN(Cc3ccc4c(c3)OCO4)CC2)nc1	< 5.00

====

- tested system: Alpha-1A adrenergic receptor (Homo sapiens)
- Sequence (P35348 whole entry): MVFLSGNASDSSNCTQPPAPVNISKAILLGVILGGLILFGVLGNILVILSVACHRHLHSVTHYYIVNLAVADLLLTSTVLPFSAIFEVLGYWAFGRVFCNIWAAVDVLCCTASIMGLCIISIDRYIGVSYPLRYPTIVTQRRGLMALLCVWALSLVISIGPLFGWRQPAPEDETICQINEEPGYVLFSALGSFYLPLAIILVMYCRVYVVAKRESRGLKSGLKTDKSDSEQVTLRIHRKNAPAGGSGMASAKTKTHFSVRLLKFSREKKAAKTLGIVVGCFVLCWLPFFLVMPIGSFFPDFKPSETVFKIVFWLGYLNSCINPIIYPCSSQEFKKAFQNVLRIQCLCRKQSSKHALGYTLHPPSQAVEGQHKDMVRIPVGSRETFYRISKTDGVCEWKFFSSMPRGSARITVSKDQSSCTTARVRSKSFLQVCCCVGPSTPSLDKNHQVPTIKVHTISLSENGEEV

test smiles	Ki
c1cnc(N2CCN(Cc3ccc4c(c3)OCO4)CC2)nc1	813 nM
